# protocol_notes: in vitro
# test_conditions: rat, plasma
Where a SMILES comes first, the peptide text is derived from it.
observed_property: half-life

Challenge: What value of half-life has been recorded for this entry: CC(C)C[C@@H]1NC(=O)[C@H](CCCNC(=N)N)NC(=O)[C@H](NC(=O)[C@H](CCCNC(=N)N)NC(=O)[C@@H]2CCC(=O)N2)CSSC[C@@H](C(=O)N[C@@H](Cc2c[nH]cn2)C(=O)N[C@@H](CCCCN)C(=O)NCC(=O)N2CCC[C@H]2C(=O)N[C@H](Cc2ccccc2)C(=O)N[C@H](C)C(=O)N[C@H](Cc2ccccc2)C(=O)O)NC1=O [Example 4, pE-R-c*-R-L-C*-H-K-G-P-f-a-f-OH] (HELM PEPTIDE1{[Glp].R.[dC].R.L.C.H.K.G.P.[dF].[dA].[dF]}$PEPTIDE1,PEPTIDE1,3:R3-6:R3$$$V2.0)
Response given: 1.43 h

Value source: patent US9908919B2
